assay: Pharmacokinetics and total colon distribution after oral administration; assay type: in vivo; settings: male, C57BL/6, mouse, total colon; mice, oral 5 mg/kg, dosed compound measured, 12 h; read-out: total colon level
Quantity kind: concentration at 12 h (ng/g)
Answer in ng/g, number only, no unit symbol.

Prompt line: Quick one: concentration at 12 h for COc1cc(Nc2cc(Oc3ccc(NC(=O)Nc4cc(C(C)(C)C)cc(NS(C)(=O)=O)c4OC)c4ccccc34)ccn2)ccc1C(=O)NCCOCCOCCOP(=O)(O)O ?
Response line: 0

----------
assay: Pharmacokinetics and total colon distribution after oral administration; assay type: in vivo; details: male, C57BL/6, mouse, blood; mice, oral 5 mg/kg, dosed compound measured, 1 h; read-out: Mean blood concentration
Quantity kind: concentration at 1 h (ng/mL)
Answer in ng/mL, number only, no unit symbol.

Prompt line: Quick one: concentration at 1 h for COc1cc(Nc2cc(Oc3ccc(NC(=O)Nc4cc(C(C)(C)C)cc(NS(C)(=O)=O)c4OC)c4ccccc34)ccn2)ccc1C(=O)NCCOCCOCCOP(=O)(O)O ?
Response line: 0

----------
System: Jurkat cells
Assay: (r) Cell cytotoxicity assay
Assay type: cell-based, human
Settings: 20 μg/mL, 24 hours
Method: 1×10^5 Jurkat cells (immortalised human T lymphocytes) are added to the appropriate number of wells of a 96 well plate in 100 μL of media (RPMI supplemented with 10% foetal bovine serum). […] After 15 minutes, cells are analysed by flow cytometry (BD accuri) using the FL3 window. The % viability is calculated as the % of cells that are PI negative in the test wells normalised to the DMSO control.
Quantity kind: % Viability at 20 μg/mL (%)
Answer in %, number only, no unit symbol.

Sample answers from the record:
Prompt line: Quick one: % Viability at 20 μg/mL for COc1cc(Nc2cc(Oc3ccc(NC(=O)Nc4cc(NS(C)(=O)=O)cc(C(C)(C)C)c4)c4ccccc34)ccn2)ccc1C(=O)NCCCN1CCN(C)CC1 ?
Response line: 2.0

Prompt line: Okay, and COc1cc(Nc2cc(Oc3ccc(NC(=O)Nc4cc(C(C)(C)C)cc(NS(C)(=O)=O)c4OC)c4ccccc34)ccn2)cc(OC)c1C(=O)NCCCN1CCN(C)CC1 ?
Response line: 80.6

Prompt line: Okay, and COc1c(NC(=O)Nc2ccc(Oc3ccnc(Nc4ccc(P(C)(=O)O)c(N(C)C)c4)c3)c3ccccc23)cc(C(C)(C)C)cc1NS(C)(=O)=O ?
Response line: 90.2

Prompt line: Okay, and COc1cc(Nc2cc(Oc3ccc(NC(=O)Nc4cc(C(C)(C)C)cc(NS(C)(=O)=O)c4OC)c4ccccc34)ccn2)ccc1C(=O)NCC(=O)O ?
Response line: 95.3

Prompt line: Okay, and COc1cc(Nc2cc(Oc3ccc(NC(=O)Nc4cc(C(C)(C)C)cc(NS(C)(=O)=O)c4OC)c4ccccc34)ccn2)cc(OC)c1C(=O)NCCCN1CCOCC1 ?
Response line: 89.8

Lab note: next molecule to report on.
Prompt line: Quick one: % Viability at 20 μg/mL for CCN1CCN(CCNC(=O)c2ccc(Nc3cc(Oc4ccc(NC(=O)Nc5cc(C(C)(C)C)cc(NS(C)(=O)=O)c5OC)c5ccccc45)ccn3)cc2OC)CC1 ?
Response line: 0.5

----------
tested on: Jurkat cells; test: (r) Cell cytotoxicity assay; format: cell-based, human; conditions: 5 μg/mL, 24 hours
Outcome: Y for % Viability at 5 μg/mL of at least 30%; N for anything lower.

Prompt line: # bool: % Viability at 5 μg/mL of COc1cc(Nc2cc(Oc3ccc(NC(=O)Nc4cc(C(C)(C)C)cc(NS(C)(=O)=O)c4OC)c4ccccc34)ccn2)ccc1C(=O)NCC(CO)(CO)CO >= 30%
Response line: Y

Prompt line: Okay, and COc1cc(Nc2cc(Oc3ccc(NC(=O)Nc4cc(C(C)(C)C)cc(NS(C)(=O)=O)c4OC)c4ccccc34)ccn2)ccc1C(=O)NCCCCCN(C)C ?
Response line: N

Prompt line: Okay, and CCC(=O)NS(=O)(=O)c1ccc(Nc2nccc(Oc3ccc(NC(=O)Nc4cc(C(C)(C)C)cc(NS(C)(=O)=O)c4OC)c4ccccc34)n2)cc1OC ?
Response line: Y

Further cases:
Prompt line: # bool: % Viability at 5 μg/mL of COc1cc(Nc2nccc(Oc3ccc(NC(=O)Nc4cc(C(C)(C)C)cc(NS(C)(=O)=O)c4OC)c4ccccc34)n2)ccc1C(=O)NCCCN1CCOCC1 >= 30%
Response line: N

Prompt line: Okay, and COc1cc(Nc2cc(Oc3ccc(NC(=O)Nc4cc(C(C)(C)C)cc(NS(C)(=O)=O)c4OC)c4ccccc34)ccn2)ccc1S(=O)(=O)N(C)CCCN1CCN(C)CC1 ?
Response line: Y

Prompt line: Okay, and COc1cc(Nc2cc(Oc3ccc(NC(=O)Nc4cc(C(C)(C)C)cc(NS(C)(=O)=O)c4OC)c4ccccc34)ccn2)ccc1S(=O)(=O)CCCN1CCOCC1 ?
Response line: Y

----------
assay: Pharmacokinetics and total colon distribution after oral administration; assay type: in vivo; details: male, C57BL/6, mouse, whole blood; mice, Ex. 36 measured after oral 5 mg/kg of Ex. 47 (Na salt), 2 h; read-out: Mean blood concentration
Quantity kind: concentration at 2 h (ng/mL)
Answer in ng/mL, number only, no unit symbol.

Prompt line: Quick one: concentration at 2 h for COc1cc(Nc2cc(Oc3ccc(NC(=O)Nc4cc(C(C)(C)C)cc(NS(C)(=O)=O)c4OC)c4ccccc34)ccn2)cc(OC)c1C(=O)NCCOCCOCCO [Example 36] ?
Response line: 0

----------
system: Jurkat cells; assay: (r) Cell cytotoxicity assay; format: cell-based, human; conditions: 20 μg/mL, 24 hours
Quantity kind: % Viability at 20 μg/mL (%)
Answer in %, number only, no unit symbol.

Sample answers from the record:
Prompt line: Test system Jurkat cells; read-out % Viability at 20 μg/mL; what value for COc1cc(Nc2cc(Oc3ccc(NC(=O)Nc4cc(C(C)(C)C)cc(NS(C)(=O)=O)c4OC)c4ccccc34)ccn2)ccc1-c1nn[nH]n1 ?
Response line: 9.7

Prompt line: Okay, and COc1cc(Nc2cc(Oc3ccc(NC(=O)Nc4cc(C(C)(C)C)cc(NS(C)(=O)=O)c4OC)c4ccccc34)ccn2)ccc1C(=O)N[C@@H](CO)C(=O)O ?
Response line: 94.8

Further cases:
Prompt line: Test system Jurkat cells; read-out % Viability at 20 μg/mL; what value for COc1cc(Nc2cc(Oc3ccc(NC(=O)Nc4cc(C(C)(C)C)cc(NS(C)(=O)=O)c4OC)c4ccccc34)ccn2)ccc1C(=O)NCCN1CCN(CCO)CC1 [17(z)] ?
Response line: 2.0

Prompt line: Okay, and COc1cc(Nc2nccc(Oc3ccc(NC(=O)Nc4cc(C(C)(C)C)cc(NS(C)(=O)=O)c4OC)c4ccccc34)n2)ccc1C(=O)NCCC1CCN(C)CC1 ?
Response line: 1.1

Prompt line: Okay, and COc1c(NC(=O)Nc2ccc(Oc3ccnc(Nc4ccc(C(=O)O)c(N(C)C)c4)n3)c3ccccc23)cc(C(C)(C)C)cc1NS(C)(=O)=O ?
Response line: 10.8

Prompt line: Okay, and COc1cc(Nc2cc(Oc3ccc(NC(=O)Nc4cc(C(C)(C)C)cc(NS(C)(=O)=O)c4OC)c4ccccc34)ccn2)ccc1C(=O)NCCCC[C@H](N)C(=O)O ?
Response line: 91.7

Prompt line: Okay, and COc1cc(Nc2nccc(Oc3ccc(NC(=O)Nc4cc(C(C)(C)C)cc(NS(C)(=O)=O)c4OC)c4ccccc34)n2)cc(OC)c1C(=O)NCCN1CCN(C)CC1 ?
Response line: 4.5

Prompt line: Okay, and COc1cc(Nc2cc(Oc3ccc(NC(=O)Nc4cc(C(C)(C)C)cc(NS(C)(=O)=O)c4OC)c4ccccc34)ccn2)cc(OC)c1C(=O)N1CCN(CCN(C)C)CC1 ?
Response line: 92.3

Prompt line: Okay, and COc1c(NC(=O)Nc2ccc(Oc3ccnc(Nc4ccc(C(=O)NCCN5CCN(C)CC5)c(N(C)C)c4)c3)c3ccccc23)cc(C(C)(C)C)cc1NS(C)(=O)=O ?
Response line: 2.0

Prompt line: Okay, and COc1cc(Nc2cc(Oc3ccc(NC(=O)Nc4cc(C(C)(C)C)cc(NS(C)(=O)=O)c4OC)c4ccccc34)ccn2)ccc1C(=O)NCCCN1CCOCC1 ?
Response line: 79.3

Prompt line: Okay, and COc1cc(Nc2cc(Oc3ccc(NC(=O)Nc4cc(C(C)(C)C)cc(NS(C)(=O)=O)c4OC)c4ccccc34)ccn2)ccc1C(=O)NCCN1CCSCC1 ?
Response line: 102.9

Prompt line: Okay, and COc1c(NC(=O)Nc2ccc(Oc3ccnc(Nc4ccc(C(=O)NCCOCCOCCO)c(N(C)C)c4)c3)c3ccccc23)cc(C(C)(C)C)cc1NS(C)(=O)=O ?
Response line: 22.5

----------
system: Jurkat cells; assay: (r) Cell cytotoxicity assay; assay type: cell-based, human; conditions: 20 μg/mL, 24 hours
# % Viability at 20 μg/mL per record follows
Answer in %, number only, no unit symbol.

Sample answers from the record:
Prompt line: Quick one: % Viability at 20 μg/mL for COc1cc(Nc2cc(Oc3ccc(NC(=O)Nc4cc(NS(C)(=O)=O)cc(C(C)(C)C)c4)c4ccccc34)ccn2)ccc1C(=O)NCCC1CCN(C)CC1 ?
Response line: 0.3

Prompt line: Okay, and COc1cc(Nc2cc(Oc3ccc(NC(=O)Nc4cc(C(C)(C)C)cc(NS(C)(=O)=O)c4OC)c4ccccc34)ccn2)ccc1C(=O)NCCOCCOCCOP(=O)(O)O ?
Response line: 100.9

Prompt line: Okay, and COc1cc(Nc2cc(Oc3ccc(NC(=O)Nc4cc(C(C)(C)C)cc(NS(C)(=O)=O)c4OC)c4ccccc34)ccn2)ccc1C(=O)NCCN1CCN(C2CC2)CC1 ?
Response line: 76.6

Further cases:
Prompt line: Quick one: % Viability at 20 μg/mL for COc1cc(Nc2cc(Oc3ccc(NC(=O)Nc4cc(C(C)(C)C)cc(NS(C)(=O)=O)c4OC)c4ccccc34)ccn2)ccc1S(=O)(=O)CCCN1CCOCC1 ?
Response line: 91.8

Prompt line: Okay, and COc1cc(Nc2cc(Oc3ccc(NC(=O)Nc4cc(C(C)(C)C)cc(NS(C)(=O)=O)c4OC)c4ccccc34)ccn2)ccc1C(=O)NCCOCCO ?
Response line: 0.5

Prompt line: Okay, and COc1cc(Nc2cc(Oc3ccc(NC(=O)Nc4cc(C(C)(C)C)cc(NS(C)(=O)=O)c4OC)c4ccccc34)ccn2)ccc1C(=O)NCCC1CCN(C)CC1 ?
Response line: 0.7
